- Target Entity: LXRβ (Homo sapiens, UniProt P55055)
- Construct: Co-transfection expression plasmids, comprising full-length LXRα (pCMX-h LXRα[…] or LXRβ (pCMX-hLXRβ)); expressed in transfected cells; host or cells: CV-1 African Green Monkey Kidney Cells
- Sequence (P55055 whole entry): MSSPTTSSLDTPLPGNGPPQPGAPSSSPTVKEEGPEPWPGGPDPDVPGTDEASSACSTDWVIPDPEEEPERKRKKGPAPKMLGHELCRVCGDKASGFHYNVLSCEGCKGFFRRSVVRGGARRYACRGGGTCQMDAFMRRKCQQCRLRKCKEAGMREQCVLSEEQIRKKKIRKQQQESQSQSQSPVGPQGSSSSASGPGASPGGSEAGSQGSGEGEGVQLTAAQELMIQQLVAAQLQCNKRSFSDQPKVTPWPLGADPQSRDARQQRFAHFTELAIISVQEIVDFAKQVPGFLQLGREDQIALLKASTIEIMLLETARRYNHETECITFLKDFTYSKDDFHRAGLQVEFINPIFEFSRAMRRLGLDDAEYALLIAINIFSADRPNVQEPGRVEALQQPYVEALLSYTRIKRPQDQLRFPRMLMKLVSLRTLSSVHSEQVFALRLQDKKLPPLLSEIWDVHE
- Sequence (P19793 whole entry partner): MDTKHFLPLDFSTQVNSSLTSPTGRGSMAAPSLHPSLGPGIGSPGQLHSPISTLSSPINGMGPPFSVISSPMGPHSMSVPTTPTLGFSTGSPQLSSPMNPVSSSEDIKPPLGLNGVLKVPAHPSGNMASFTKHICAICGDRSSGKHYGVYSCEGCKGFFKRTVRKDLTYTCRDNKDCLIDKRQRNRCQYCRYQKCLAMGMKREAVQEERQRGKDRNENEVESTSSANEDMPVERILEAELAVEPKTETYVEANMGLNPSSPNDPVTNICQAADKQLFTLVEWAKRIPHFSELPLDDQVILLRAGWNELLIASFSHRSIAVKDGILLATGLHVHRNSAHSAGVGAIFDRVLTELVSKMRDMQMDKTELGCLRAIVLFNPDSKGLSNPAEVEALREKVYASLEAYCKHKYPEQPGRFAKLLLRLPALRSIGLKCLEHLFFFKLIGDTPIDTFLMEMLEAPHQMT
- Assay Info: Co-transfection assay (LXRE luciferase reporter), LXRβ
- Format: cell-based
- Cond: LXRβ co-transfection; relative to high control 1-(2,4-difluorobenzyl)-2-oxo-6-(4-phenoxyphenyl)-4-(trifluoromethyl)-1,2-dihydropyridine-3-carbonitrile; read-out: % Efficacy
Exercise: state measured Emax for each of the compounds provided.
Return type: number; implicit unit %.

Reported Emax ( Cc1nc(-c2cc(-c3cccc(S(C)(=O)=O)c3)ccc2-n2cc(C(F)(F)F)nc2C)c(-c2cccnc2Cl)o1 [Example 552] ) = 82

Short answer for Cc1nc(C(F)(F)F)cn1-c1ccc(-c2cccc(S(C)(=O)=O)c2)cc1-n1nncc1-c1ccc2occc2c1 [Example 86] : Emax was 77

The compound listed as Cc1nc(C(F)(F)F)cn1-c1ccc(-c2cccc(S(C)(=O)=O)c2)cc1-n1nncc1-c1ccc(Cl)c(OC(F)(F)F)c1 [Example 35] shows Emax equal to 68

The recorded Emax for entry Cc1nc(C(F)(F)F)cn1-c1ccc(-c2cccc(S(C)(=O)=O)c2)cc1-c1nc(CCO)oc1-c1ccc(OC(F)(F)F)cc1 [Example 524] equals 66

Summary for this compound, Cc1nc(C(F)(F)F)cn1-c1c(F)cc(-c2cc(F)c(CO)c(S(C)(=O)=O)c2)cc1-n1nncc1-c1ccc(Cl)cc1 [Example 198] : Emax is 87

// Cc1nc(-c2cc(-c3cc(F)c(CO)c(S(C)(=O)=O)c3)ccc2-n2cc(C(F)(F)F)nc2C)c(-c2cc(F)c(OC(F)F)c(F)c2)o1 [Example 457] : Emax value = 76

----------
- Target Entity: LXRβ (Homo sapiens, UniProt P55055)
- Construct: Co-transfection expression plasmids, comprising full-length LXRα (pCMX-h LXRα[…] or LXRβ (pCMX-hLXRβ))
- Assay Info: Co-transfection assay (LXRE luciferase reporter), LXRβ
- Cond: CV-1 cells transfected with pCMX-hLXRβ and LXREx1-Tk-Luciferase; 20 hours incubation
Could you please report measured log10(EC50) for the items listed next?
All values: log10 EC50 [nM].

The compound listed as "Cc1nc(C(F)(F)F)cn1-c1c(F)cc(-c2cc(F)c(CO)c(S(C)(=O)=O)c2)cc1-n1nncc1-c1ccc(Cl)cc1Cl" has a reported log10(EC50) of 1.87

The value of log10(EC50) measured for the compound "Cc1nc(-c2cc(-c3cccc(S(C)(=O)=O)c3)ccc2-n2cc(C(F)(F)F)nc2C)c(-c2ccc(Cl)cn2)o1" turned out to be 2.55

In plain terms, "Cc1nc(C(F)F)cn1-c1ccc(-c2cccc(S(C)(=O)=O)c2)cc1-n1nncc1-c1ccccc1" has a documented log10(EC50) of 3.49

For record "Cc1nc(C(F)(F)F)cn1-c1ccc(-c2cccc(S(=O)(=O)N(C)C)c2)cc1-n1nncc1-c1ccc(OC(F)(F)F)cc1" the listed log10(EC50) is 2.32

Measured log10(EC50) of "Cc1nc(-c2cc(-c3cccc(S(C)(=O)=O)c3)ccc2-n2cc(C(F)(F)F)nc2C)c(-c2ccc3c(c2)CCC3)o1" : 2.08

// recorded log10(EC50) for "Cc1nc(-c2cc(-c3cccc(S(C)(=O)=O)c3)ccc2-n2cc(C(F)(F)F)nc2C)c(-c2ccc(OC(F)(F)C(F)(F)F)cc2)o1" : 1.98

----------
- Target Entity: LXRβ (Homo sapiens, UniProt P55055)
- Construct: Co-transfection expression plasmids, comprising full-length LXRα (pCMX-h LXRα[…] or LXRβ (pCMX-hLXRβ)); expressed in transfected cells; host or cells: CV-1 African Green Monkey Kidney Cells
- Assay Info: Co-transfection assay (LXRE luciferase reporter), LXRβ
- Format: cell-based
- Cond: LXRβ co-transfection; relative to high control 1-(2,4-difluorobenzyl)-2-oxo-6-(4-phenoxyphenyl)-4-(trifluoromethyl)-1,2-dihydropyridine-3-carbonitrile; read-out: % Efficacy
Exercise: for every item that follows, state its recorded Emax.
State just the number; it will be interpreted in %.

Record CNS(=O)(=O)c1cccc(-c2ccc(-n3cc(C(F)(F)F)nc3C)c(-n3nncc3-c3ccc(OC(F)(F)F)cc3)c2)c1 [Example 213] , field Emax: 89

Reported Emax for Cc1nc(-c2cc(-c3cccc(S(C)(=O)=O)c3)ccc2-n2cc(C(F)(F)F)nc2C)c(-c2ccc(OC(F)F)cc2)o1 [Example 495] was 108

Memo: Cc1nc(C(F)(F)F)cn1-c1ccc(-c2cc(F)c(CCO)c(S(C)(=O)=O)c2)cc1-n1nncc1-c1ccc(OC(F)(F)F)cc1 [Example 237] , reported Emax: 98

----------
Hi there, I'd appreciate the recorded log10 EC50 for every entry that follows.
- Target Entity: LXRβ (Homo sapiens, UniProt P55055)
- Construct: Co-transfection expression plasmids, comprising full-length LXRα (pCMX-h LXRα[…] or LXRβ (pCMX-hLXRβ))
- Assay Info: Co-transfection assay (LXRE luciferase reporter), LXRβ
- Cond: CV-1 cells transfected with pCMX-hLXRβ and LXREx1-Tk-Luciferase; 20 hours incubation
// units: µM (pre-log); metric: EC50; scale: log10

log10 EC50 reading for "Cc1nc(C(C)(F)F)cn1-c1ccc(-c2cccc(S(C)(=O)=O)c2)cc1-n1nncc1-c1ccc(OC(F)(F)F)cc1" : -0.19

response.value for "Cc1nc(-c2cc(-c3cc(F)c(CO)c(S(C)(=O)=O)c3)ccc2-n2cc(C(F)(F)F)nc2C)c(-c2cc(F)c(OC(F)F)c(F)c2)o1" (field: log10 EC50) = -1.24

So for "CNS(=O)(=O)c1cccc(-c2ccc(-n3cc(C(C)(F)F)nc3C)c(-n3nncc3-c3ccc(OC(F)(F)F)cc3)c2)c1" , the logged log10 EC50 turned out to be -0.50

Sure, the documented log10 EC50 for "Cc1nc(-c2cc(-c3cccc(C4(C(N)=O)CC4)c3)ccc2-n2cc(C(F)(F)F)nc2C)c(-c2ccc3c(c2)OC(F)(F)O3)o1" is -0.08

"Cc1nc(C(F)F)c(C)n1-c1ccc(-c2cccc(S(C)(=O)=O)c2)cc1-n1nncc1-c1ccc(OC(F)(F)F)cc1" yielded log10 EC50 of 0.29

What the record says about "Cc1nc(C(F)(F)F)cn1-c1ccc(-c2cccc(S(C)(=O)=O)c2)cc1-c1oc(CC(=O)O)nc1-c1ccc(OC(F)(F)F)cc1" : log10 EC50 is -0.59

Value of measured log10 EC50 for the entry "Cc1nc(-c2cc(-c3cc(F)c(CO)c(S(C)(=O)=O)c3)ccc2-n2cc(C(F)(F)F)nc2C)c(-c2ccc(Cl)cc2Cl)o1" : -1.77

log10 EC50 reported for this molecule "Cc1nc(-c2cc(-c3cc(F)cc(S(C)(=O)=O)c3)ccc2-n2cc(C(F)(F)F)nc2C)c(-c2ccc3c(c2)OC(F)(F)O3)o1" : -0.81

Reported log10 EC50 ( "Cc1nc(C(F)(F)F)cn1-c1ccc(-c2ccc(CO)c(S(C)(=O)=O)c2)cc1-c1ccnn1-c1ccc2c(c1)OC(F)(F)O2" ) = -1.40

Value of log10 EC50 reported for the molecule "Cc1cc(-c2cc(-c3cc(O)c(CF)c(S(C)(=O)=O)c3)ccc2-n2cc(C(F)(F)F)nc2C)n(-c2ccc(OC(F)(F)F)cc2)n1" is -1.68

Value of log10 EC50 reported for the molecule "Cc1nc(-c2cc(-c3cc(F)c(CO)c(S(C)(=O)=O)c3)ccc2-n2cc(C(F)(F)F)nc2C)c(-c2ccc(OC(F)F)c(OC3CC3)c2)o1" is -1.72

Entry "COc1ncc(-c2oc(C)nc2-c2cc(-c3cc(F)c(CO)c(S(C)(=O)=O)c3)ccc2-n2cc(Cl)nc2C)cc1F" ; log10 EC50 = -0.62

Lookup result for "Cc1nc(-c2ccc(OC(F)F)cc2)c(-c2cc(-c3ccc(CO)c(S(C)(=O)=O)c3)ccc2-n2cc(C(F)(F)F)nc2C)o1" ; measured log10 EC50: -1.14

----------
- Target Entity: LXRβ (Homo sapiens)
- Construct: Co-transfection expression plasmids, comprising full-length LXRα (pCMX-h LXRα[…] or LXRβ (pCMX-hLXRβ)); expressed in transfected cells; host or cells: CV-1 African Green Monkey Kidney Cells
- Assay Info: Co-transfection assay (LXRE luciferase reporter), LXRβ
- Assay type: cell-based
- Cond: LXRβ co-transfection; relative to high control 1-(2,4-difluorobenzyl)-2-oxo-6-(4-phenoxyphenyl)-4-(trifluoromethyl)-1,2-dihydropyridine-3-carbonitrile; read-out: % Efficacy
Exercise: state measured Emax for each of the compounds provided.
Give the quantity in %, number only.

Emax reading for "Cc1nc(-c2cc(-c3cccc(S(=O)(=O)C(F)F)c3)ccc2-n2cc(C(F)(F)F)nc2C)c(-c2ccc3c(c2)OC(F)(F)O3)o1" : 56

Lookup result for "Cc1nc(C(F)(F)F)cn1-c1ccc(-c2cc(F)c(CO)c(S(C)(=O)=O)c2)cc1-n1nncc1-c1ccc(Cl)c(Cl)c1" ; measured Emax: 99

Note to self: Emax recorded for "Cc1nc(-c2cc(-c3cccc(S(=O)(=O)C(F)F)c3)ccc2-n2cc(C(F)(F)F)nc2C)c(-c2ccc(OC(F)F)c(F)c2)o1" was 88

Reported Emax ( "Cc1nc(C(F)(F)F)cn1-c1ccc(-c2cccc(S(C)(=O)=O)c2)cc1-n1nncc1Cc1ccc(Cl)cc1" ) = 83

Emax in this record for "Cc1nc(C(F)(F)F)cn1-c1ccc(-c2cccc(S(C)(=O)=O)c2)cc1-c1nc(C(F)(F)F)cn1-c1ccc(Cl)cc1" : 37

Sample "CS(=O)(=O)c1cc(-c2cc(F)c(-n3cnc(C(F)(F)F)c3)c(-n3nncc3-c3ccc(Cl)cc3Cl)c2)cc(F)c1CO" ; Emax observed: 119

Reference source for all entries: patent US9834542B2
